molecular target: peripheral-type benzodiazepine sites on FEL cells (Mus musculus); construct: endogenous in cells; host or cells: DS 19 Friend erythroleukemia cell line (FEL); test: Inhibition of binding of 7-chloro-5-(4-chlorophenyl)-1,3-dihydro-1-methyl-2H-1,4-benzodiazepine-2-one to FEL cells; settings: IC50 (inhibition of binding to FEL cells), FEL cells; compounds 1-12
Recorded Metric: IC50

q: What value of IC50 has been recorded for this entry: CN1C(=O)CN=C(c2ccccc2)c2cc(Cl)ccc21 [Compound 4, diazepam, reference compound]
a: 79 nM

* * *

system: DS 19 Friend erythroleukemia cell line (FEL); assay: Induction of differentiation of FEL cells (hemoglobin synthesis, benzidine staining); format: cell-based, mouse; settings: Mus musculus, 120 h, 5 days, read-out: ED50 (concentration required to induce 50% of the FEL cells)
Please note: EC50 exactly at 30 µM is 0. Only values below 30 µM get 1.

CN1C(=O)CN=C(c2ccccc2)c2cc(Cl)ccc21 [Compound 4, diazepam, reference compound]; 0
COc1ccc(C2=NCC(=O)N(C)c3ccc(Cl)cc32)cc1; 0
CN1C(=O)C(O)N=C(c2ccccc2)c2cc(Cl)ccc21 (stereo not drawn); 0
C[C@@H]1N=C(c2ccccc2F)c2cc([N+](=O)[O-])ccc2N(C)C1=O; 1
CN1C(=O)CN=C(c2ccc(O)cc2)c2cc(Cl)ccc21; 1

q: Regarding CN1C(=O)CN=C(c2ccccc2)c2ccccc21 , kindly confirm whether its EC50 is beneath 30 µM.
a: 0

* * *

Listed here are compounds together with their documented IC50.
target: peripheral-type benzodiazepine sites on FEL cells (Mus musculus, UniProt P50637); construct: endogenous in cells; host or cells: DS 19 Friend erythroleukemia cell line (FEL); assay: Inhibition of binding of 7-chloro-5-(4-chlorophenyl)-1,3-dihydro-1-methyl-2H-1,4-benzodiazepine-2-one to FEL cells; settings: FEL cells; compounds 13-16, in μM; read-out: IC50 (inhibition of binding to FEL cells)
Sequence (P50637 whole entry): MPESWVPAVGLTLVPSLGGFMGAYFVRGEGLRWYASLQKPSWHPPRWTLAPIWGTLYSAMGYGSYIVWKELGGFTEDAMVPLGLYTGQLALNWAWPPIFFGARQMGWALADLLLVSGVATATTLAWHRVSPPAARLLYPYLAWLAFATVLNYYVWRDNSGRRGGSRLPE
Entry rule: numbers only, all in µM.

CN1C(=O)CN=C(c2ccc(Cl)cc2)c2cc([N+](=O)[O-])ccc21; 0.034
CN1C(=O)CN=C(c2ccccc2Cl)c2cc(Cl)ccc21; 0.011
CN1C(=O)CN=C(c2ccccc2Cl)c2ccccc21; 0.175

q: What value of IC50 has been recorded for this entry: CN1C(=O)CN=C(c2ccccc2F)c2cc([N+](=O)[O-])ccc21
a: 0.08

* * *

tested on: DS 19 Friend erythroleukemia cell line (FEL); assay: Induction of differentiation of FEL cells (hemoglobin synthesis, benzidine staining); format: cell-based, mouse; conditions: Mus musculus, 120 h, 5 days, read-out: ED10 (concentration required to induce 10% of the FEL cells)
Listed here are compounds together with their documented EC10.
Entry rule: numbers only, all in µM.

Answered cases to consult:
CN1C(=O)CN=C(c2ccccc2F)c2cc([N+](=O)[O-])ccc21; 32
CN1C(=O)CN=C(c2ccccc2Cl)c2cc(Cl)ccc21; 60
CN1C(=O)CN=C(c2ccccc2Cl)c2ccccc21; 60

Next, consider the following compound.
q: Any idea what EC10 came out for CN1C(=O)CN=C(c2ccc(Cl)cc2)c2cc([N+](=O)[O-])ccc21 on DS 19 Friend erythroleukemia cell line (FEL)?
a: 60

* * *

target: peripheral binding site on thymoma cells (Mus musculus, UniProt P50637); construct: (washed cells in BGS buffer); assay: Binding of tritiated 7-chloro-5-(4-chlorophenyl)-1,3-dihydro-1-methyl-2H-1,4-benzodiazepin-2-one to thymoma cells (saturation, association, dissociation)
Sequence (P50637 whole entry): as above
Recorded Metric: pKd
Scale: negative log10 of molar concentration, which is what pKd denotes.

q: What value of pKd has been recorded for this entry: CN1C(=O)CN=C(c2ccc(Cl)cc2)c2cc(Cl)ccc21
a: 8.36

* * *

molecular target: peripheral-type benzodiazepine sites on FEL cells (Mus musculus); construct: endogenous in cells; host or cells: DS 19 Friend erythroleukemia cell line (FEL); test: Inhibition of binding of 7-chloro-5-(4-chlorophenyl)-1,3-dihydro-1-methyl-2H-1,4-benzodiazepine-2-one to FEL cells; settings: FEL cells; compounds 1-12; read-out: IC50 (inhibition of binding to FEL cells)
Listed here are compounds together with their documented pIC50.
Scale: negative log10 of molar concentration, which is what pIC50 denotes.

Answered cases to consult:
CN1C(=O)C(O)N=C(c2ccc(Cl)cc2)c2cc(Cl)ccc21 (centres unmarked); 7.70
CN1C(=O)CN=C(c2ccc(O)cc2)c2cc(Cl)ccc21; 7.00
CN1C(=O)CN=C(c2ccc(Cl)cc2)c2ccccc21; 7.27

q: Any idea what pIC50 came out for CN1C(=O)CN=C(c2ccc(Cl)cc2)c2cc(F)ccc21 on peripheral-type benzodiazepine sites on FEL cells (Mus musculus)?
a: 7.89

q: Same for CN1C(=O)CN=C(c2ccccc2)c2ccccc21
a: 6.15

* * *

Listed here are molecules together with their documented IC50.
Molecular target: peripheral-type benzodiazepine sites on FEL cells (Mus musculus)
Construct: endogenous in cells; host or cells: DS 19 Friend erythroleukemia cell line (FEL)
Experiment: Inhibition of binding of 7-chloro-5-(4-chlorophenyl)-1,3-dihydro-1-methyl-2H-1,4-benzodiazepine-2-one to FEL cells
Details: FEL cells; compounds 1-12; read-out: IC50 (inhibition of binding to FEL cells)
Description: Of twenty five (25) of the benzodiazepines tested it was observed that sixteen induced differentiation (weakly to strongly active) in a concentration-dependent manner. The concentration of each compound required to induce 50%, 20% or 10% of the FEL cells along with the half-maximal concentrations for each compound required to inhibit 50% of the binding of 7-chloro-5-(4-chlorophenyl)-1,3-dihydro-1-methyl-2H-1,4-benzodiazepine-2-one to the FEL cells (IC50) is listed in the following table: […]
Entry rule: numbers only, all in nM.

Answered cases to consult:
C[C@H]1N=C(c2ccccc2F)c2cc([N+](=O)[O-])ccc2N(C)C1=O; 1040
CN1C(=O)CN=C(c2ccc(Cl)cc2)c2cc(Cl)ccc21; 6
CN1C(=O)C(O)N=C(c2ccccc2)c2cc(Cl)ccc21 (stereo not drawn); 236
C[C@@H]1N=C(c2ccccc2F)c2cc([N+](=O)[O-])ccc2N(C)C1=O; 1100

q: What value of IC50 has been recorded for this entry: COc1ccc(C2=NCC(=O)N(C)c3ccc(Cl)cc32)cc1
a: 15

q: Same for CN1C(=O)CN=C(c2ccc(F)cc2)c2ccccc21
a: 327
